Data provenance: PubChem BioAssay AID1918996

Entries annotated with measured viability, T/C
System: 349418-098-R-PDC complex spheroid growth
procedure.text: Anticancer human tumor 349418-098-R-PDC patient-derived lung adenocarcinoma cell line growth inhibition [AhR]
experimental.parameters: second compound 3.16 µM; first compound 0.00949 µM; active compounds read low
Reply with just the number (in %).

CCN(c1cc(-c2ccc(CN3CCOCC3)cc2)cc(C(=O)NCc2c(C)cc(C)[nH]c2=O)c1C)C1CCOCC1 + CC(CO)NC(=O)c1cc(-c2ccc(Cl)cc2)nn(-c2cnn(C)c2)c1=O: 77.5

Fill in the recorded viability, T/C for this compound, with 349418-098-R-PDC complex spheroid growth as test system: Nc1ncn(C2CC(O)C(CO)S2)c(=O)n1 (stereo not drawn) + Cc1ccccc1N=Nc1ccc(NC(=O)c2ccnn2C)c(C)c1 72.2

Next record, please: O=C(C=Cn1cnc(-c2cc(C(F)(F)F)cc(C(F)(F)F)c2)n1)NNc1cnccn1 + Cc1ccccc1N=Nc1ccc(NC(=O)c2ccnn2C)c(C)c1 47.9

* * *

Test system: 349418-098-R-PDC complex spheroid growth
procedure.text: Anticancer human tumor 349418-098-R-PDC cell line growth inhibition [AhR]; active means viability on the fitted dose curve at most 10% of control; inactive means the rest;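 further: spheroids also contain HUVEC endothelial cells and human MSC stroma; spheroids exposed to agents for seven days before luminescence viability read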
experimental.parameters: second compound 10 µM; first compound 0.00949 µM
Hello, when you answer, please use one of the following outcomes: t = active, f = inactive

CCN(c1cc(-c2ccc(CN3CCOCC3)cc2)cc(C(=O)NCc2c(C)cc(C)[nH]c2=O)c1C)C1CCOCC1 + CC(CO)NC(=O)c1cc(-c2ccc(Cl)cc2)nn(-c2cnn(C)c2)c1=O: f
Nc1ncn(C2CC(O)C(CO)S2)c(=O)n1 (stereo not drawn) + CC(CO)NC(=O)c1cc(-c2ccc(Cl)cc2)nn(-c2cnn(C)c2)c1=O: f

Now for a further molecule.
Call for entry CCN(c1cc(-c2ccc(CN3CCOCC3)cc2)cc(C(=O)NCc2c(C)cc(C)[nH]c2=O)c1C)C1CCOCC1 + Cc1cncc(-c2nc(NCCc3c[nH]c4ccccc34)c3ncn(C(C)C)c3n2)c1 : t

* * *

Tested on: 349418-098-R-PDC complex spheroid growth
procedure.text: Anticancer human tumor 349418-098-R-PDC cell line growth inhibition [AhR];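 further: spheroids also contain HUVEC endothelial cells and human MSC stroma; spheroids exposed to agents for seven days before luminescence viability read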
experimental.parameters: second compound 3.16 µM; first compound 3.16 µM; active compounds read low
quantity.measured: viability, T/C (%)
Dear colleague, please return just the value in %, with no unit written.

Below: 10 molecules and their reported viability, T/C.
COc1cc(Nc2ncc3c(n2)-c2ccc(Cl)cc2C(c2c(F)cccc2OC)=NC3)ccc1C(=O)O + Cc1ccccc1N=Nc1ccc(NC(=O)c2ccnn2C)c(C)c1: 26.8
O=C(c1cc(Cc2n[nH]c(=O)c3ccccc23)ccc1F)N1CCN(C(=O)C2CC2)CC1 + CC(CO)NC(=O)c1cc(-c2ccc(Cl)cc2)nn(-c2cnn(C)c2)c1=O: 55.2
COc1cc(Nc2ncc3c(n2)-c2ccc(Cl)cc2C(c2c(F)cccc2OC)=NC3)ccc1C(=O)O + CC(CO)NC(=O)c1cc(-c2ccc(Cl)cc2)nn(-c2cnn(C)c2)c1=O: 28.8
CC1(C)CCC(CN2CCN(c3ccc(C(=O)NS(=O)(=O)c4ccc(NCC5CCOCC5)c([N+](=O)[O-])c4)c(Oc4cnc5[nH]ccc5c4)c3)CC2)=C(c2ccc(Cl)cc2)C1 + Cc1cncc(-c2nc(NCCc3c[nH]c4ccccc34)c3ncn(C(C)C)c3n2)c1: 27.3
Nc1ccccc1NC(=O)c1ccc(CNC(=O)OCc2cccnc2)cc1 + Cc1cncc(-c2nc(NCCc3c[nH]c4ccccc34)c3ncn(C(C)C)c3n2)c1: 7.68
NS(=O)(=O)OCC1CC(n2ccc3c(NC4CCc5ccccc54)ncnc32)CC1O (configuration not stated) + CC(CO)NC(=O)c1cc(-c2ccc(Cl)cc2)nn(-c2cnn(C)c2)c1=O: 10.7
COc1cccc2c1C(=O)c1c(O)c3c(c(O)c1C2=O)CC(O)(C(=O)CO)CC3OC1CC(N)C(O)C(C)O1 (configuration not stated) + CC(CO)NC(=O)c1cc(-c2ccc(Cl)cc2)nn(-c2cnn(C)c2)c1=O: 2.73
COc1cccc2c1C(=O)c1c(O)c3c(c(O)c1C2=O)CC(O)(C(=O)CO)CC3OC1CC(N)C(O)C(C)O1 (configuration not stated) + Cc1cncc(-c2nc(NCCc3c[nH]c4ccccc34)c3ncn(C(C)C)c3n2)c1: 2.14
NS(=O)(=O)OCC1CC(n2ccc3c(NC4CCc5ccccc54)ncnc32)CC1O (configuration not stated) + Cc1cncc(-c2nc(NCCc3c[nH]c4ccccc34)c3ncn(C(C)C)c3n2)c1: 3.97
COc1cc(Nc2ncc3c(n2)-c2ccc(Cl)cc2C(c2c(F)cccc2OC)=NC3)ccc1C(=O)O + Cc1cncc(-c2nc(NCCc3c[nH]c4ccccc34)c3ncn(C(C)C)c3n2)c1: 14.7

// next entry
Could you tell me which viability, T/C is on file for O=C(C=Cc1cccc(S(=O)(=O)Nc2ccccc2)c1)NO + CC(CO)NC(=O)c1cc(-c2ccc(Cl)cc2)nn(-c2cnn(C)c2)c1=O ? 7.44
